target: CDK5/p25 (Homo sapiens, UniProt Q00535); assay: CDK5 mobility shift assay (enzymatic activity of CDK5/p25); type: biochemical; details: 0.154 nM CDK5/p25, FL peptide 29, 60 min at room temperature; read-out: CDK5 IC50
Sequence (Q00535 whole entry): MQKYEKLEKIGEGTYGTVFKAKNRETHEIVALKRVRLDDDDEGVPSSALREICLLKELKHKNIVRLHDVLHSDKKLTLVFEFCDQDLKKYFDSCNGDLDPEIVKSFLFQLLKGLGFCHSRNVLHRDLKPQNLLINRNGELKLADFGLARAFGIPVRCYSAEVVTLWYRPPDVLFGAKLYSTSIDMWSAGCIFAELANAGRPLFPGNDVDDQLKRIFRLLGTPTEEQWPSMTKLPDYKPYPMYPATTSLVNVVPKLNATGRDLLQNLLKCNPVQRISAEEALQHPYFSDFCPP
Sequence (Q15078 99-307 partner limits assumed): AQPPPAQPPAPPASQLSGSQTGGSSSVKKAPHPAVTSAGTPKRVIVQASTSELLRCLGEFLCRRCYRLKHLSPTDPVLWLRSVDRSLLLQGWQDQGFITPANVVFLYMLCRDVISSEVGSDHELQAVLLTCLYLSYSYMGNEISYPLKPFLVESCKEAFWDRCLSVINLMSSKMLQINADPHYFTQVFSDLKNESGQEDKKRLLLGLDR
Assay Metric: IC50

CN(C)Cc1cccc(Nc2cc3nc(S(=O)(=O)C4CCN(C)CC4)ccc3cn2)c1 [Compound 280] ... 10 to 100 nM
COC(=O)c1ccn(-c2ccc(Nc3cc4nc(C(O)C5CCN(C)CC5)ccc4cn3)c(F)c2)n1 (stereo not shown) [Compound 347] ... < 10 nM
CN1CCC(C(F)(F)c2ccc3cnc(Nc4ccc(-n5cccn5)cc4F)cc3n2)CC1 [Compound 291] ... < 10 nM

# lookup: IC50 of OCCN(c1ccc2cnc(Nc3ccc(-n4ccc(CO)n4)cc3F)cc2n1)C1CCNCC1 [Compound 105] 10 to 100 nM

# lookup: IC50 of CN1CCC(C(O)c2ccc3cnc(Nc4ccc(-n5ccc(CO)n5)cc4F)cc3n2)CC1 (single isomer, unassigned) [Compound 254] < 10 nM

# lookup: IC50 of CN1CCC([C@@](C)(O)c2ccc3cnc(Nc4ccc(-c5cc[nH]n5)cc4F)cc3n2)CC1 [Compound 414] < 10 nM

# lookup: IC50 of NC(=O)c1cccc(-c2ccc(Nc3cc4nc(S(=O)(=O)C5CCN(CC6COC6)CC5)ccc4cn3)c(F)c2)c1 [Compound 326] < 10 nM

---

Reported values of IC50 for individual entries
target: CDK2/CycA2 (Homo sapiens, UniProt P24941); assay: CDK2 mobility shift assay (enzymatic activity of CDK2/CycA2); format: biochemical; conditions: 1.25 nM CDK2/CycA2, 37 μM ATP, FL Peptide 18, 120 min at room temperature; read-out: CDK2 IC50

Observe how each entry below is paired with its result.
CN1CCC(C(C)(O)c2ccc3cnc(Nc4ccc(-n5cccn5)cc4F)cc3n2)CC1 (single isomer, unassigned) [Compound 205] ... > 1000 nM
CCC(c1ccc2cnc(Nc3ccc(-n4ccc(CO)n4)cc3F)cc2n1)C1CCN(C)CC1 (stereo not shown) [Compound 246] ... > 1000 nM
Cc1cc(OCCC(N)=O)ccc1Nc1cc2nc(S(=O)(=O)C3CCN(C)CC3)ccc2cn1 [Compound 258] ... > 1000 nM

# next molecule below
# lookup: IC50 of CCN1CCC(N(CC(=O)O)c2ccc3cnc(Nc4ccc(-n5ccc(CO)n5)cc4F)cc3n2)CC1 [Compound 144] 100 to 1000 nM

---

Reported values of pIC50 for individual entries
target: CDK5/p25 (Homo sapiens, UniProt Q00535); assay: CDK5 mobility shift assay (enzymatic activity of CDK5/p25); format: biochemical; details: 0.154 nM CDK5/p25, FL peptide 29, 60 min at room temperature; read-out: CDK5 IC50
pIC50: −log10 of the molar value.

Observe how each entry below is paired with its result.
Cc1ccc(Nc2cc3nc(S(=O)(=O)C4CCN(C)CC4)ccc3cn2)c(F)c1 [Compound 294] ... > 8.00
COC(=O)c1cnn(-c2ccc(Nc3cc4nc(S(=O)(=O)C5CCN(C)CC5)ccc4cn3)c(F)c2)c1 [Compound 288] ... > 8.00

# lookup: pIC50 of CN1CCC(C(O)c2ccc3cnc(Nc4ccc(-n5ccc(CO)n5)cc4F)cc3n2)CC1 (single isomer, unassigned) [Compound 247] 7.00 to 8.00

# lookup: pIC50 of NC1CCN(C(=O)c2ccc3cnc(Nc4ccc(-n5cccn5)cc4F)cc3n2)C1 (stereo not shown) [Compound 215] 6.00 to 7.00
